# PROTOCOL_SUMMARY: Solubility in aqueous media
# Format: physicochemical
# EXPERIMENTAL_CONDITIONS: aqueous buffer; phosphate buffer (pH 1.0); read-out: solubility
QUANTITY_MEASURED: solubility (µg/mL)
Give the number; µg/mL is assumed, so skip it.

Asked: Any idea what solubility was measured for COc1ccc(CNc2nc(C3CCC(C(=O)O)CC3)nc3sc4ccccc4c23)cc1Cl (stereo not shown) ?
Given back: 0.022
